- Subject Of Test: T1, human Activin A (R&D Systems) (human, UniProt P08476 311-426)
- T1 sequence (looked up): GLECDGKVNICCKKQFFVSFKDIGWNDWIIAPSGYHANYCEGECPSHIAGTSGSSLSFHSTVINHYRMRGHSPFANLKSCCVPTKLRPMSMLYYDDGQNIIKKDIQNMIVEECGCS
- Protocol Text: cell-based or functional assay
Recorded Metric: ARE-luciferase IC50 (nM)

Binder	ARE-luciferase IC50 [nM]
2987_H02 (designed binder) MGVSDVPRDLEVVAATPTSLLISWSLPYAGHAHYYRITYGETGGNSPVQEFTVPGRGVTATISGLKPGVDYTITVYAVTLTKSKVIHYMPISINYRTEIDKPSQHHHHHH	794

[I] 3008_D04 (designed binder) MGVSDVPRDLEVVAATPTSLLISWSLPHNGVAHYYRITYGETGGNSPVQEFTVPGRGVTATISGLKPGVDYTITVYAVTVTREEVISYKPISINYRTEIDKPSQHHHHHH
[II] 2987_C02 (designed binder) MGVSDVPRDLEVVAATPTSLLISWSLPYAGHAHYYRITYGETGGNSPVQEFTVPGRGVTATISGLKPGVDYTITVYAVTLTKSKIIHYMPISINYRTEIDKPSQHHHHHH
Lower ARE-luciferase IC50: I or II ? Could you answer with the label of the item you picked?
II
(II: 464 nM, I: 720 nM)
